B1: TPR t1 (parent)
chain: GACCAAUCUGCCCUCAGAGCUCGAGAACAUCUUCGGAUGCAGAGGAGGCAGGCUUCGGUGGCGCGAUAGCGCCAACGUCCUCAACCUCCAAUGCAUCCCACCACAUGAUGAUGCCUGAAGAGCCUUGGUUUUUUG

Variants of: B1
TEST_PROTOCOL: polymerase ribozyme fitness, log enrichment relative to wild type (log ratio); higher = more active; in vitro selection for triplet polymerase activity
Below is a list of entries, each paired with its recorded polymerase ribozyme fitness (log ratio) value.
Answer field: number only, no words.

Sample answers from the record:
VARIANT_DESIGNATION: C53U A103U U116C G117U A118C
RECORDED_RESULT: -5.82
//
VARIANT_DESIGNATION: C12G G47C U96A C104A
RECORDED_RESULT: -4.59

Please find the next variant below.
Query: Name the recorded polymerase ribozyme fitness (log ratio) of the variant listed here: G42U C102A
Response: -5.37
